# experimental-protocol: Caspase-3/7 induction in CHO-K1 cells by small molecules, qHTS cell viability counter screen (AID 1346979); also: nearly all actives have a fitted effect of over 35% in size
# condition: CellTiter-Fluor fluorescence, 17 h; series mostly up to 92.4 µM
Results filed as inconclusive are left out. Activity calls are given as the source filed them. Calls follow the shape of the dose curve; as a rule, active = well fitted cell-killing curve with a large enough effect in the repeat runs; inconclusive = weak or mixed curves, or effect the other way; inactive = no such curve, though single readings can be large or run the other way.
Hi there, use one of these labels in your reply, thanks! yes (active), no (inactive)

QUERY: Hi team, can someone confirm the assay call for C=CC(C)=CCC=C(C)C ?
RESULT: no

QUERY: Hi team, can someone confirm the assay call for CC1CC(=O)NN=C1c1ccc(NCC(C)(C)NCC(O)COc2cc(Cl)ccc2C#N)cc1 (stereo not drawn) ?
RESULT: no

QUERY: Hi team, can someone confirm the assay call for COCC(O)CO (stereo not drawn) ?
RESULT: no

QUERY: Hi team, can someone confirm the assay call for CCOC(=O)/C=C/C(=O)O ?
RESULT: no

QUERY: Hi team, can someone confirm the assay call for O=C(/C=C/c1ccccc1)OCCCc1ccccc1 ?
RESULT: no

QUERY: Hi team, can someone confirm the assay call for CN1CCCN=C1/C=C/c1cccs1 ?
RESULT: no

QUERY: Hi team, can someone confirm the assay call for CCOC(=O)c1ccccc1C ?
RESULT: no

QUERY: Hi team, can someone confirm the assay call for OC(CCCN1CCCCC1)(c1ccccc1)c1ccccc1 ?
RESULT: no

QUERY: Hi team, can someone confirm the assay call for Cc1ccnc2ccccc12 ?
RESULT: no

QUERY: Hi team, can someone confirm the assay call for Cc1occc1C(=O)Nc1ccc(C(=O)N2CCC(F)(F)/C(=C\C(=O)N3CCC(N4CCCCC4)CC3)c3ccccc32)cc1 ?
RESULT: no

QUERY: Hi team, can someone confirm the assay call for Cc1oncc1C(=O)Nc1ccc(C(F)(F)F)cc1 ?
RESULT: no

QUERY: Hi team, can someone confirm the assay call for CCOC(=O)c1ccccc1OC ?
RESULT: no

QUERY: Hi team, can someone confirm the assay call for CCNC(=O)N1CCN(CCCC(c2ccc(F)cc2)c2ccc(F)cc2)CC1 ?
RESULT: yes

###

# experimental-protocol: qHTS RealTime-Glo MT Cell Viability Assay in HepG2 cells - 24 hour (AID 1224867); also: nearly all actives have a fitted effect of over 50% in size
# condition: RealTime-Glo luminescence; series mostly up to 76.8 µM
Inconclusive results are not listed. Activity calls are given as the source filed them. Calls come from the whole dose curve; as a rule, active = well fitted cell-killing curve with a large enough effect in the repeat runs; inconclusive = weak or mixed curves; inactive = flat fitted curve, though single readings scatter.
Hi there, use one of these labels in your reply, thanks! 1.0 = active, 0.0 = inactive

QUERY: Hi team, can someone confirm the assay call for O=c1[nH]c2ccc(S(=O)CCN3CCC(Cc4ccc(F)cc4)CC3)cc2o1 (configuration not stated) ?
RESULT: 0.0

QUERY: Hi team, can someone confirm the assay call for CC(=O)CC(c1ccc([N+](=O)[O-])cc1)c1c(O)c2ccccc2oc1=O (configuration not stated) ?
RESULT: 0.0

QUERY: Hi team, can someone confirm the assay call for CCn1nc(C)c2c1C(=O)NCC(c1ccc(O)cc1)=N2 ?
RESULT: 0.0

QUERY: Hi team, can someone confirm the assay call for Cc1cc(OI)c(C(C)C)cc1-c1cc(C(C)C)c(OI)cc1C ?
RESULT: 0.0

QUERY: Hi team, can someone confirm the assay call for O=C(c1ccc(O)cc1)c1ccc(Cl)cc1 ?
RESULT: 0.0

QUERY: Hi team, can someone confirm the assay call for CC1(C)C(=O)N(Br)C(=O)N1Cl ?
RESULT: 0.0

QUERY: Hi team, can someone confirm the assay call for CC(C)OCC1CO1 (configuration not stated) ?
RESULT: 0.0

QUERY: Hi team, can someone confirm the assay call for Nc1ccc(S(=O)(=O)O)c(N)c1 ?
RESULT: 0.0

QUERY: Hi team, can someone confirm the assay call for NC(=O)Nc1ccc(Cl)cc1 ?
RESULT: 0.0

QUERY: Hi team, can someone confirm the assay call for CCCCCCCCSCCO ?
RESULT: 0.0

QUERY: Hi team, can someone confirm the assay call for COCCOC ?
RESULT: 0.0

QUERY: Hi team, can someone confirm the assay call for Oc1cc(O)c(Cl)cc1Cl ?
RESULT: 0.0

QUERY: Hi team, can someone confirm the assay call for CCCOCCOCCO ?
RESULT: 0.0

QUERY: Hi team, can someone confirm the assay call for NC(=O)N(O)[C@@H]1C=C[C@H](Oc2cccc(Oc3ccc(F)cc3)c2)C1 ?
RESULT: 0.0

QUERY: Hi team, can someone confirm the assay call for CCCCC(=O)O[C@]1(C(=O)CO)CC[C@H]2[C@@H]3CCC4=CC(=O)CC[C@]4(C)[C@H]3[C@@H](O)C[C@@]21C ?
RESULT: 0.0

QUERY: Hi team, can someone confirm the assay call for CCN(CC)CCNC(=O)c1ccc(NC(C)=O)cc1 ?
RESULT: 0.0

QUERY: Hi team, can someone confirm the assay call for CC1=CC(O)CC(C)(C)C1 (configuration not stated) ?
RESULT: 0.0

QUERY: Hi team, can someone confirm the assay call for O=C1OCCN1/N=C/c1ccc([N+](=O)[O-])o1 ?
RESULT: 0.0

QUERY: Hi team, can someone confirm the assay call for CC(=O)[C@H]1CC[C@H]2[C@@H]3C[C@H](C)C4=CC(=O)CC[C@]4(C)[C@H]3[C@@H](O)C[C@]12C ?
RESULT: 0.0

QUERY: Hi team, can someone confirm the assay call for Cc1cc2nc3ccc(=[N+](C)C)cc-3sc2cc1N ?
RESULT: 1.0

QUERY: Hi team, can someone confirm the assay call for CCCCC(CC)COC(=O)COc1ccc(Cl)cc1C (configuration not stated) ?
RESULT: 0.0

QUERY: Hi team, can someone confirm the assay call for O=Cc1c(Cl)cccc1Cl ?
RESULT: 0.0

###

# experimental-protocol: qHTS RealTime-Glo MT Cell Viability Assay in HEK293 cells - 16 hour (AID 1224872); also: nearly all actives have a fitted effect of over 50% in size
# condition: RealTime-Glo luminescence; series mostly up to 76.8 µM
Records with an inconclusive call do not appear. Calls of active or inactive are those of the source. The call rests on the fitted dose curve; in most records, active means well fitted cell-killing curve with a large enough effect in the repeat runs; inconclusive means weak or mixed curves, or effect the other way; inactive means flat fitted curve, though single readings scatter.
Hi there, use one of these labels in your reply, thanks! active, inactive

QUERY: Hi team, can someone confirm the assay call for Nc1nccs1 ?
RESULT: inactive

QUERY: Hi team, can someone confirm the assay call for C[C@@H]1C[C@H]2[C@@H]3CCC4=CC(=O)C=C[C@]4(C)[C@@]3(F)[C@@H](O)C[C@]2(C)[C@@]1(O)C(=O)CO ?
RESULT: inactive

QUERY: Hi team, can someone confirm the assay call for CCOC(=O)C(C)Oc1ccc(Oc2nc3ccc(Cl)cc3o2)cc1 (configuration not stated) ?
RESULT: active

QUERY: Hi team, can someone confirm the assay call for ON(Cc1ccccc1)Cc1ccccc1 ?
RESULT: inactive

QUERY: Hi team, can someone confirm the assay call for CCCCCCCCCCCC[N+](C)(C)CC(=O)[O-] ?
RESULT: inactive

QUERY: Hi team, can someone confirm the assay call for O=C(NCCCN1CCOCC1)c1ccc(Cl)cc1 ?
RESULT: inactive

QUERY: Hi team, can someone confirm the assay call for CC(C)C(=O)O ?
RESULT: inactive

QUERY: Hi team, can someone confirm the assay call for CN(C)CCOC1=Cc2ccccc2Sc2ccc(Cl)cc21 ?
RESULT: inactive

QUERY: Hi team, can someone confirm the assay call for Nc1ccc(Cl)cc1[N+](=O)[O-] ?
RESULT: inactive

QUERY: Hi team, can someone confirm the assay call for CC(Cl)C(Cl)Cl (configuration not stated) ?
RESULT: inactive

QUERY: Hi team, can someone confirm the assay call for COC(=O)c1cc(Cl)ccc1NS(=O)(=O)C(F)(F)F ?
RESULT: inactive

QUERY: Hi team, can someone confirm the assay call for Cc1nc2ccccn2c(=O)c1CCN1CCC(C(=O)c2ccc(F)cc2)CC1 ?
RESULT: active

###

# system-name: Cytochrome P450 2C9 (Homo sapiens)
# experimental-protocol: Cytochrome P450 Family 2 Subfamily C Member 9 (CYP2C9) small molecule antagonists: luciferase reporter qHTS assay (AID 1671198); also: nearly all actives have a fitted effect of over 50% in size
# condition: P450-Glo CYP2C9 enzyme assay, luciferin luminescence; series mostly up to 115 µM
# Source text: U.S. Tox21 Program National Center for Advancing Translational Sciences [NCATS] U.S. Environmental Protection Agency [EPA] National Institutes of Environmental Health Sciences [NIEHS] National Toxicology Program [NTP] U.S. Food and Drug Administration [FDA] […] The luciferin products formed are detected with a luciferin detection reagent, and the amount of light produced is proportional to CYP activity. […]
Results filed as inconclusive are left out. Active and inactive are the calls of the source. The call rests on the fitted dose curve; in most records, active means well fitted inhibition curve with a large enough effect in the repeat runs; inconclusive means weak or mixed curves; inactive means no such curve, though single readings can be large or run the other way.
Hi there, use one of these labels in your reply, thanks! YES for active, NO for inactive

QUERY: Hi team, can someone confirm the assay call for CN(C)C(=O)Nc1ccc(Oc2ccc(Cl)cc2)cc1 ?
RESULT: YES

QUERY: Hi team, can someone confirm the assay call for Brc1cc(-c2ccc(Br)c(Br)c2Br)cc(Br)c1Br ?
RESULT: NO

QUERY: Hi team, can someone confirm the assay call for CCCCC(CC)CNCC(CC)CCCC (stereo not drawn) ?
RESULT: NO

QUERY: Hi team, can someone confirm the assay call for COC(=O)c1cc(Cl)ccc1NS(=O)(=O)C(F)(F)F ?
RESULT: NO

QUERY: Hi team, can someone confirm the assay call for Cc1nc2ccccc2s1 ?
RESULT: NO

QUERY: Hi team, can someone confirm the assay call for CC#N ?
RESULT: NO

QUERY: Hi team, can someone confirm the assay call for OCC1CC=CCC1 (stereo not drawn) ?
RESULT: NO

QUERY: Hi team, can someone confirm the assay call for CCCOCCOCCO ?
RESULT: NO

QUERY: Hi team, can someone confirm the assay call for OC(CCCN1CCCCC1)(c1ccccc1)c1ccccc1 ?
RESULT: NO

QUERY: Hi team, can someone confirm the assay call for O=[N+]([O-])c1cccc(S(=O)(=O)NCCNS(=O)(=O)c2cccc([N+](=O)[O-])c2)c1 ?
RESULT: YES

QUERY: Hi team, can someone confirm the assay call for CC(CCc1ccc2c(c1)OCO2)NN (stereo not drawn) ?
RESULT: YES

QUERY: Hi team, can someone confirm the assay call for Oc1cc(O)c(Cl)cc1Cl ?
RESULT: YES

QUERY: Hi team, can someone confirm the assay call for O=c1[nH]c2ccc(S(=O)CCN3CCC(Cc4ccc(F)cc4)CC3)cc2o1 (stereo not drawn) ?
RESULT: NO

QUERY: Hi team, can someone confirm the assay call for OCCSc1ccccc1 ?
RESULT: NO

QUERY: Hi team, can someone confirm the assay call for CCCCCCCCCOC(C)=O ?
RESULT: NO

QUERY: Hi team, can someone confirm the assay call for CC1(C)C2=CCCC(C)(C)[C@]23CC[C@H]1C3 ?
RESULT: YES

QUERY: Hi team, can someone confirm the assay call for CCOC(=N)CC(=O)OCC ?
RESULT: NO

QUERY: Hi team, can someone confirm the assay call for CO[Si](C)(OC)OC ?
RESULT: NO

QUERY: Hi team, can someone confirm the assay call for CCCCN(CCCC)C(=S)SSC(=S)N(CCCC)CCCC ?
RESULT: YES

QUERY: Hi team, can someone confirm the assay call for Cc1cc(OI)c(C(C)C)cc1-c1cc(C(C)C)c(OI)cc1C ?
RESULT: YES

QUERY: Hi team, can someone confirm the assay call for CN1C(=O)CC(C)(c2ccccc2)C1=O (stereo not drawn) ?
RESULT: NO

QUERY: Hi team, can someone confirm the assay call for CC(C)C(OC(=O)c1ccccc1)C(C)(C)COC(=O)c1ccccc1 (stereo not drawn) ?
RESULT: YES

QUERY: Hi team, can someone confirm the assay call for Nc1ccc(C(=O)OCCCOC(=O)c2ccc(N)cc2)cc1 ?
RESULT: YES

QUERY: Hi team, can someone confirm the assay call for C[Si]1(C)O[Si](C)(C)O[Si](C)(C)O1 ?
RESULT: NO

QUERY: Hi team, can someone confirm the assay call for COCc1c(C(C)C)nc(C(C)C)c(/C=C/[C@@H](O)C[C@@H](O)CC(=O)O)c1-c1ccc(F)cc1 ?
RESULT: YES

QUERY: Hi team, can someone confirm the assay call for O=C(CCCN1CCC(O)(c2ccc(Br)cc2)CC1)c1ccc(F)cc1 ?
RESULT: NO

QUERY: Hi team, can someone confirm the assay call for CC(=O)Oc1ccc2c(c1)CC[C@@H]1[C@@H]2CC[C@]2(C)[C@@H](O)CC[C@@H]12 ?
RESULT: NO

QUERY: Hi team, can someone confirm the assay call for O=C1NCCN1 ?
RESULT: NO
